Listing: pKd of selected binders
# EXPERIMENTAL_TARGET: T1, EsCas13d, nuclease-dead (Eubacterium siraeum, UniProt B0MS50, R295A;H300A;R849A;H854A)
# T1 sequence: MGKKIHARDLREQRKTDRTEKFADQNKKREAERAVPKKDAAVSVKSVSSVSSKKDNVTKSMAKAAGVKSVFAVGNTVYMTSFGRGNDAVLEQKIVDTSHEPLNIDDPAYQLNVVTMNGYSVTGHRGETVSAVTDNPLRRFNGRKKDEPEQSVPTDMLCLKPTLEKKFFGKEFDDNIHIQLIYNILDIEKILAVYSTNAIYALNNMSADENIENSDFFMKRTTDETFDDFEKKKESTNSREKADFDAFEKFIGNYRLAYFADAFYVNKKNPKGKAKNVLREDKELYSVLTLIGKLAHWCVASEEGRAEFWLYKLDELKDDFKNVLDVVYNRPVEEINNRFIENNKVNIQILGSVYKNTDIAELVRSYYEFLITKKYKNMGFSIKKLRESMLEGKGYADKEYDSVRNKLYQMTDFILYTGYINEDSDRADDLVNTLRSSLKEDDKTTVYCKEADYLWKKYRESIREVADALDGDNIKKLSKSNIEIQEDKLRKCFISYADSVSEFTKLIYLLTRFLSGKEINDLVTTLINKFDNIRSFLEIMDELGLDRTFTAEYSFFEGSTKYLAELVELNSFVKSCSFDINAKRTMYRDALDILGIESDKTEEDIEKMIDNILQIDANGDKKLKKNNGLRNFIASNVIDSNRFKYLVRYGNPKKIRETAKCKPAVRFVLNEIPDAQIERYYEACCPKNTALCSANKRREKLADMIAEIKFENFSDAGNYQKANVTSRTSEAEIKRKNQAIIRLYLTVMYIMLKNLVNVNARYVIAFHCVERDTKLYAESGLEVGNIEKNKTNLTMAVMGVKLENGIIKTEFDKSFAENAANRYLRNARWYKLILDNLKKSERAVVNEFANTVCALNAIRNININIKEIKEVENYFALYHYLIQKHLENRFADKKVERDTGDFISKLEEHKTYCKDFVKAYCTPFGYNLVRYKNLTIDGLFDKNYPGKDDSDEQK
# ASSAY_PROTOCOL: crRNA (strand 1, pre-loaded); Mg2+; 40 mM Tris-HCl pH 7.5, 150 mM NaCl, 6 mM MgCl2, 1 mM DTT, 0.1% Tween-20, 0.2 mg/ml BSA; 25 C; 10 min per concentration, then washed
# ASSAY_CONTEXT: tags: His6-TwinStrep-SUMO cleaved; N-terminal SNAP kept (SNAP-Surface 488); label: 3' end held by stalled T7 RNA polymerase
Interpret pKd as the negative base-10 log of the concentration measured in mol/L.

BINDER: target 3 insA 3' of 6,insU 3' of 4 (mixed) RNA 1: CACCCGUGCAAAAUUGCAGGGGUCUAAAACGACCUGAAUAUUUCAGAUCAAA RNA 2: GGGAAUGGAUCCACAUCUACGAAUUCGUUUUUGAUCUGAAAUAUUCAAGUGUCUGCAGAUCGGAAGAGCACACGU
pKd: 8.65

Shift focus to the following entry.
Please give the measured pKd for this binder: target 2 MT 5'PFS UAU 3'PFS UUA (mixed) RNA 1: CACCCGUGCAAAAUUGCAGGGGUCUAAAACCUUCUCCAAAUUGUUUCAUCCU RNA 2: GGGAAUGGAUCCACAUCUACGAAUUCUAUAGGAUGAAACAAUUUGGAGAAGUUAAGAUCGGAAGAGCACACGU 7.48
